- Method Description: The drug is tested on Z-018 corresponding to pig gut metagenome with ENA study accession number: PRJEB37062 and ENA sample accession number: ERS12561817 for biotransformation under anaerobic condition. The drug concentrations were measured over 9 timepoints collected between 0 and 24 hours of incubation by liquid-chromatography-coupled mass spectrometry (LC–MS); note: call rule not given here
- Run Parameters: 2 µM
Reported Endpoint: Bacterial Biotransformation

Compound	Bacterial Biotransformation
COc1ccc2cc([C@H](C)C(=O)O)ccc2c1 [NAPROXEN]	Compound NOT metabolized
c1ccc2[nH]c(-c3cscn3)nc2c1 [THIABENDAZOLE]	Compound NOT metabolized
Br.CN1CCC[C@@H]1Cc1c[nH]c2ccc(CCS(=O)(=O)c3ccccc3)cc12 [ELETRIPTAN HYDROBROMIDE]	Compound NOT metabolized
CC(C)[C@H]1CC[C@H](C(=O)N[C@H](Cc2ccccc2)C(=O)O)CC1 [NATEGLINIDE]	Compound metabolized
COc1cc(C(=O)NCc2ccc(OCCN(C)C)cc2)cc(OC)c1OC [TRIMETHOBENZAMIDE]	Compound NOT metabolized
O=C1CN2Cc3c(ccc(Cl)c3Cl)N=C2N1 [ANAGRELIDE]	Compound NOT metabolized
CC(=O)CCCCn1c(=O)c2c(ncn2C)n(C)c1=O [PENTOXIFYLLINE]	Compound NOT metabolized
O=C1N=C([O-])NC1(c1ccccc1)c1ccccc1.[Na+] [PHENYTOIN SODIUM]	Compound NOT metabolized

Here is another compound to look at.
Just so you know, measured Bacterial Biotransformation for CN1CCC(OC(c2ccccc2)c2ccccc2)CC1 came out at Compound metabolized

###

- Run Parameters: human gut metagenome, 24 h, 2 µM
Reported Endpoint: Bacterial Biotransformation

Known Bacterial Biotransformation results, listed for orientation:
Compound	Bacterial Biotransformation
CC#C[C@]1(O)CC[C@H]2[C@@H]3CCC4=CC(=O)CCC4=C3[C@@H](c3ccc(N(C)C)cc3)C[C@@]21C [MIFEPRISTONE]	Compound NOT metabolized
CN(CCOc1ccc(CC2SC(=O)NC2=O)cc1)c1ccccn1.O=C(O)/C=C\C(=O)O (stereo not drawn) [ROSIGLITAZONE MALEATE]	Compound metabolized
Cc1cc(C)cc(OCC2CNC(=O)O2)c1 (stereo not drawn) [METAXALONE]	Compound NOT metabolized
O=C([O-])C[C@H](O)C[C@H](O)/C=C/c1c(C2CC2)nc2ccccc2c1-c1ccc(F)cc1.O=C([O-])C[C@H](O)C[C@H](O)/C=C/c1c(C2CC2)nc2ccccc2c1-c1ccc(F)cc1.[Ca+2] [PITAVASTATIN CALCIUM]	Compound metabolized
COc1ccc(Cc2nccc3cc(OC)c(OC)cc23)cc1OC [PAPAVERINE]	Compound metabolized

Just so you know, measured Bacterial Biotransformation for Br.CN1CCC[C@@H]1Cc1c[nH]c2ccc(CCS(=O)(=O)c3ccccc3)cc12 [ELETRIPTAN HYDROBROMIDE] came out at Compound NOT metabolized

Just so you know, measured Bacterial Biotransformation for CC(=O)Nc1ccc(OC(C)=O)cc1 [DIACETAMATE] came out at Compound metabolized

Just so you know, measured Bacterial Biotransformation for CN1CCN2c3ccccc3Cc3ccccc3C2C1 (stereo not drawn) [MIANSERIN] came out at Compound NOT metabolized

###

- Run Parameters: human gut metagenome, 24 h, 2 µM
Reported Endpoint: Bacterial Biotransformation

Compound	Reading
CC1Cc2ccccc2N1NC(=O)c1ccc(Cl)c(S(N)(=O)=O)c1 (stereo unspecified) [INDAPAMIDE]	Compound NOT metabolized
CCCCC(=O)O[C@]1(C(=O)CO)[C@@H](C)C[C@H]2[C@@H]3CCC4=CC(=O)C=C[C@]4(C)[C@@]3(F)[C@@H](O)C[C@@]21C [BETAMETHASONE VALERATE]	Compound metabolized
C#C[C@]1(OC(C)=O)CC[C@H]2[C@@H]3CCC4=CC(=O)CC[C@@H]4[C@H]3CC[C@@]21C [NORETHINDRONE ACETATE]	Compound metabolized
O=C1CN2Cc3c(ccc(Cl)c3Cl)N=C2N1 [ANAGRELIDE]	Compound metabolized
CN1CCN2c3ccccc3Cc3ccccc3C2C1 (stereo unspecified)	Compound metabolized

Just so you know, measured Bacterial Biotransformation for N#Cc1ccc2[nH]cc(CCCCN3CCN(c4ccc5oc(C(N)=O)cc5c4)CC3)c2c1 came out at Compound metabolized

Just so you know, measured Bacterial Biotransformation for COc1ccc(Cc2nccc3cc(OC)c(OC)cc23)cc1OC came out at Compound metabolized

Just so you know, measured Bacterial Biotransformation for O=C(CCCN1CCC2(CC1)C(=O)NCN2c1ccccc1)c1ccc(F)cc1 came out at Compound NOT metabolized

Just so you know, measured Bacterial Biotransformation for CCOc1ccccc1OCCN[C@H](C)Cc1ccc(OC)c(S(N)(=O)=O)c1.Cl [TAMSULOSIN HYDROCHLORIDE] came out at Compound metabolized

Just so you know, measured Bacterial Biotransformation for CC(C)C[C@H]1C(=O)N2CCC[C@H]2[C@]2(O)O[C@](NC(=O)[C@@H]3C=C4c5cccc6[nH]c(Br)c(c56)C[C@H]4N(C)C3)(C(C)C)C(=O)N12.CS(=O)(=O)O [BROMOCRIPTINE MESYLATE] came out at Compound metabolized

###

- Run Parameters: human gut metagenome, 24 h, 2 µM
Reported Endpoint: Bacterial Biotransformation

Compound	Reading
COc1cc2nc(N3CCN(C(=O)C4COc5ccccc5O4)CC3)nc(N)c2cc1OC.CS(=O)(=O)O (configuration not stated) [DOXAZOSIN MESYLATE]	Compound metabolized
CC[C@H](C)C(=O)O[C@H]1CCC=C2C=C[C@H](C)[C@H](CC[C@@H]3C[C@@H](O)CC(=O)O3)[C@H]21	Compound NOT metabolized
CN(CCOc1ccc(CC2SC(=O)NC2=O)cc1)c1ccccn1.O=C(O)/C=C\C(=O)O (configuration not stated) [ROSIGLITAZONE MALEATE]	Compound metabolized
COc1cc2nc(N3CCN(C(=O)C4CCCO4)CC3)nc(N)c2cc1OC (configuration not stated)	Compound NOT metabolized
CC(C)C[C@H]1C(=O)N2CCC[C@H]2[C@]2(O)O[C@](NC(=O)[C@@H]3C=C4c5cccc6[nH]c(Br)c(c56)C[C@H]4N(C)C3)(C(C)C)C(=O)N12.CS(=O)(=O)O [BROMOCRIPTINE MESYLATE]	Compound metabolized

Just so you know, measured Bacterial Biotransformation for OC(c1cc(C(F)(F)F)nc2c(C(F)(F)F)cccc12)C1CCCCN1 (configuration not stated) came out at Compound NOT metabolized

Just so you know, measured Bacterial Biotransformation for CCOc1ccccc1OCCN[C@H](C)Cc1ccc(OC)c(S(N)(=O)=O)c1.Cl [TAMSULOSIN HYDROCHLORIDE] came out at Compound NOT metabolized

###

- Run Parameters: human gut metagenome, 24 h, 2 µM
Reported Endpoint: Bacterial Biotransformation

Compound	Bacterial Biotransformation
CC(=O)CCCCn1c(=O)c2c(ncn2C)n(C)c1=O [PENTOXIFYLLINE]	Compound metabolized
CN(CCOc1ccc(CC2SC(=O)NC2=O)cc1)c1ccccn1.O=C(O)/C=C\C(=O)O (configuration not stated) [ROSIGLITAZONE MALEATE]	Compound metabolized
CNCC[C@H](Oc1cccc2ccccc12)c1cccs1 [DULOXETINE]	Compound metabolized
O=C(O)c1cc(/N=N/c2ccc(S(=O)(=O)Nc3ccccn3)cc2)ccc1O [SULFASALAZINE]	Compound metabolized
CCCN1C[C@H](CSC)C[C@@H]2c3cccc4[nH]cc(c34)C[C@H]21.CS(=O)(=O)O [PERGOLIDE MESYLATE]	Compound NOT metabolized

Just so you know, measured Bacterial Biotransformation for C=CC[C@@H]1/C=C(\C)C[C@H](C)C[C@H](OC)[C@H]2O[C@@](O)(C(=O)C(=O)N3CCCC[C@H]3C(=O)O[C@H](/C(C)=C/[C@@H]3CC[C@@H](O)[C@H](OC)C3)[C@H](C)[C@@H](O)CC1=O)[C@H](C)C[C@@H]2OC.O [TACROLIMUS] came out at Compound metabolized

Just so you know, measured Bacterial Biotransformation for O=C(NC(Cc1cc(=O)[nH]c2ccccc12)C(=O)O)c1ccc(Cl)cc1 (configuration not stated) [REBAMIPIDE] came out at Compound NOT metabolized

Just so you know, measured Bacterial Biotransformation for CC(C)c1c(CN(C)C(C)Cc2ccccc2)n(C)n(-c2ccccc2)c1=O (configuration not stated) [FAMPROFAZONE] came out at Compound metabolized

Just so you know, measured Bacterial Biotransformation for O=C([O-])C[C@H](O)C[C@H](O)/C=C/c1c(C2CC2)nc2ccccc2c1-c1ccc(F)cc1.O=C([O-])C[C@H](O)C[C@H](O)/C=C/c1c(C2CC2)nc2ccccc2c1-c1ccc(F)cc1.[Ca+2] [PITAVASTATIN CALCIUM] came out at Compound NOT metabolized

Just so you know, measured Bacterial Biotransformation for COc1cc(C(=O)NCc2ccc(OCCN(C)C)cc2)cc(OC)c1OC [TRIMETHOBENZAMIDE] came out at Compound NOT metabolized

Just so you know, measured Bacterial Biotransformation for c1ccc2[nH]c(-c3cscn3)nc2c1 [THIABENDAZOLE] came out at Compound metabolized

Just so you know, measured Bacterial Biotransformation for O=C1CC2(CCCC2)CC(=O)N1CCCCN1CCN(c2ncccn2)CC1 [BUSPIRONE] came out at Compound metabolized

Just so you know, measured Bacterial Biotransformation for CCN(C)C(=O)Oc1cccc([C@H](C)N(C)C)c1.O=C(O)C(O)C(O)C(=O)O [RIVASTIGMINE TARTRATE] came out at Compound NOT metabolized

Just so you know, measured Bacterial Biotransformation for CN(C/C=C/C#CC(C)(C)C)Cc1cccc2ccccc12 [TERBINAFINE] came out at Compound metabolized

Just so you know, measured Bacterial Biotransformation for COc1ccc(C(CN(C)C)C2(O)CCCCC2)cc1 (configuration not stated) [VENLAFAXINE] came out at Compound metabolized

Just so you know, measured Bacterial Biotransformation for CCOC(=O)C1=C(C)NC(C)=C(C(=O)OC)C1c1cccc([N+](=O)[O-])c1 (configuration not stated) [NITRENDIPINE] came out at Compound metabolized

Just so you know, measured Bacterial Biotransformation for CC12CC3CC(C)(C1)CC(N)(C3)C2 [MEMANTINE] came out at Compound metabolized

Just so you know, measured Bacterial Biotransformation for CC(=O)OCC(CCn1cnc2cnc(N)nc21)COC(C)=O [FAMCICLOVIR] came out at Compound metabolized

Just so you know, measured Bacterial Biotransformation for COC1=C(OC)C(=O)C(CCCCCCCCCCO)=C(C)C1=O [IDEBENONE] came out at Compound metabolized

Just so you know, measured Bacterial Biotransformation for CC(=O)Oc1ccc(C(c2ccc(OC(C)=O)cc2)c2ccccn2)cc1 [BISACODYL] came out at Compound metabolized

Just so you know, measured Bacterial Biotransformation for COc1ccc(CN2CCNCC2)c(OC)c1OC.Cl.Cl [TRIMETAZIDINE DIHYDROCHLORIDE] came out at Compound NOT metabolized

Just so you know, measured Bacterial Biotransformation for CCCN(CCC)CCc1cccc2c1CC(=O)N2 [ROPINIROLE] came out at Compound metabolized
